Hey, just so you know, these numbers are from PubChem BioAssay (NCI).

Tested on: CCRF-CEM leukemia
Assay: NCI tumour cell line growth inhibition, 48 h
Overview of recorded TGI for various compounds

compound: Clc1ccccc1CN1COc2c(ccc3cccnc23)C1
assayedSystem: CCRF-CEM leukemia
prefixOperator: =
TGI [µM]: 1.74
--
compound: COc1cc(OCc2cccc(-c3ccccc3)c2C)cc(OC)c1CN1CCCCC1C(=O)NCCOCCOCCN (stereo not drawn)
assayedSystem: CCRF-CEM leukemia
prefixOperator: =
TGI [µM]: 8.9
--
compound: Nc1nccc(NCC2(CO)CC(OCc3ccccc3)C2)n1 (stereo not drawn)
assayedSystem: CCRF-CEM leukemia
prefixOperator: >
TGI [µM]: 100
--
compound: O=Cc1ccc(OC[C@H]2COC(=O)N2)cc1
assayedSystem: CCRF-CEM leukemia
prefixOperator: >
TGI [µM]: 100
--
compound: O=C1CCCC/C1=C\c1ccc([N+](=O)[O-])cc1
assayedSystem: CCRF-CEM leukemia
prefixOperator: =
TGI [µM]: 30.4
--
compound: O=C1c2cccnc2-c2nc(-c3cccnc3)cc3c2c1nc1ccccc13
assayedSystem: CCRF-CEM leukemia
prefixOperator: >
TGI [µM]: 100
--
compound: COc1c2c(nc3ccccc13)-c1cc(C(CC(=O)OC(C)(C)C)C(=O)OC(C)C)c(CO)c(=O)n1C2 (stereo not drawn)
assayedSystem: CCRF-CEM leukemia
prefixOperator: >
TGI [µM]: 100
--
compound: C/C(=N\NC(=S)N1CCC(N2CCCCC2)CC1)c1ccccn1
assayedSystem: CCRF-CEM leukemia
prefixOperator: =
TGI [µM]: 34.3
--
compound: C/C(=C(/c1ccccc1)c1ccc(OCC(O)CNCCN2CCOCC2)cc1)c1ccccc1 (stereo not drawn)
assayedSystem: CCRF-CEM leukemia
prefixOperator: =
TGI [µM]: 11.3
--
compound: O=c1oc(-c2ccc(O)cc2)cc2cc(O)ccc12
assayedSystem: CCRF-CEM leukemia
prefixOperator: >
TGI [µM]: 100
--
compound: COC(=O)C(=O)C(CC(=O)Nc1ccc(C)cc1)C(=O)OC (stereo not drawn)
assayedSystem: CCRF-CEM leukemia
prefixOperator: >
TGI [µM]: 100
--
compound: CC(C)(C)C(=O)Oc1ccc(/C=C/C(=O)c2ccc(OC(=O)C(C)(C)C)cc2)cc1
assayedSystem: CCRF-CEM leukemia
prefixOperator: =
TGI [µM]: 20.2
--
compound: COc1ccc(C2=[S+]C(c3ccccc3)(c3ccccc3)c3ccccc32)cc1
assayedSystem: CCRF-CEM leukemia
prefixOperator: =
TGI [µM]: 88.9
--
compound: COc1cc(F)ccc1-c1cc(Nc2cc(CS(C)(=N)=O)ccn2)ncc1F (stereo not drawn)
assayedSystem: CCRF-CEM leukemia
prefixOperator: >
TGI [µM]: 100
--
compound: O=C1/C(=C\c2ccco2)Oc2ccccc21
assayedSystem: CCRF-CEM leukemia
prefixOperator: >
TGI [µM]: 100
--
compound: COc1ccc2oc(S(=O)(=O)N3CC(CCl)c4ccc(N)cc43)cc2c1 (stereo not drawn)
assayedSystem: CCRF-CEM leukemia
prefixOperator: =
TGI [µM]: 12.7
--
compound: COc1cc(-c2ccc(N=Nc3ccc4c(S(=O)(=O)O)cc(S(=O)(=O)O)c(N)c4c3O)c(OC)c2)ccc1N=Nc1ccc2c(S(=O)(=O)O)cc(S(=O)(=O)O)c(N)c2c1O
assayedSystem: CCRF-CEM leukemia
prefixOperator: >
TGI [µM]: 100
--
compound: COC/N=C(\NC#N)NCOC
assayedSystem: CCRF-CEM leukemia
prefixOperator: >
TGI [µM]: 100
--
compound: Nc1nc(N)c2cc(Sc3ccc4ccccc4c3)ccc2n1
assayedSystem: CCRF-CEM leukemia
prefixOperator: =
TGI [µM]: 4.83
--
compound: CCCC1(CN2c3ccccc3Sc3ccc(Cl)cc32)CCN(CC)C1 (stereo not drawn)
assayedSystem: CCRF-CEM leukemia
prefixOperator: >
TGI [µM]: 100
--
compound: O=C(CC1(O)C(=O)Nc2ccc(F)cc21)c1ccc(C(=O)NCC2CCC3(CC2)OOC2(CCCCC2)OO3)cc1 (stereo not drawn)
assayedSystem: CCRF-CEM leukemia
prefixOperator: =
TGI [µM]: 4.3
--
compound: COc1ccc2c(c1)C(=O)/C(=C/c1cccc(OCC(=O)Nc3nc(C)c(C)s3)c1)O2
assayedSystem: CCRF-CEM leukemia
prefixOperator: =
TGI [µM]: 0.0337
--
compound: CC1CN=C(Nc2cccc(F)c2)S1 (stereo not drawn)
assayedSystem: CCRF-CEM leukemia
prefixOperator: >
TGI [µM]: 100
